Source of measurements: PubChem BioAssay AID1259407

# System: CCRIS mutagenicity, Ames/micronucleus/aberration tests
# ASSAY SUMMARY: CCRIS mutagenicity studies
# CONDITION LABEL: Test System: AMES SALMONELLA TYPHIMURIUM; Strain/Indicator: TA98; Metabolic Activation: S-9; Method: STANDARD PLATE
# Excerpt: The CCRIS database contains chemical records with carcinogenicity, mutagenicity, tumor promotion, and tumor inhibition test results. It was developed by the National Cancer Institute (NCI). Data are derived from studies cited in primary journals, current awareness tools, NCI reports, and other sources. Test results have been reviewed by experts in carcinogenesis and mutagenesis. CCRIS provides historical information from the years 1985 - 2011. It is no longer updated. […]
Activity calls are given as the source filed them. How the calls were made is not given here.
PARAMETER: mutagenic call

Example entries begin here.
{"SMILES REPRESENTATION": "CNC(=O)/C=C(\\C)OP(=O)(OC)OC", "TARGET OR TEST SYSTEM": "CCRIS mutagenicity, Ames/micronucleus/aberration tests", "mutagenic call": "inactive; negative"}
{"SMILES REPRESENTATION": "COc1ccc(/C=C/c2ccc(N)cc2)cc1", "TARGET OR TEST SYSTEM": "CCRIS mutagenicity, Ames/micronucleus/aberration tests", "mutagenic call": "active; positive"}
{"SMILES REPRESENTATION": "CN1CC[C@@]2(C)c3cc(O)ccc3N(C)[C@@H]12", "TARGET OR TEST SYSTEM": "CCRIS mutagenicity, Ames/micronucleus/aberration tests", "mutagenic call": "inactive; negative"}
{"SMILES REPRESENTATION": "CC(C)CN(C(=O)CCCl)c1snc2ccccc12", "TARGET OR TEST SYSTEM": "CCRIS mutagenicity, Ames/micronucleus/aberration tests", "mutagenic call": "inactive; negative"}
{"SMILES REPRESENTATION": "Cc1ccc2nsc(NC(=O)C(Cl)(Cl)Cl)c2c1", "TARGET OR TEST SYSTEM": "CCRIS mutagenicity, Ames/micronucleus/aberration tests", "mutagenic call": "active; positive"}

Query: Give the reported mutagenic call for "N=c1ccn2c(n1)O[C@H]1[C@H](O)[C@@H](CO)O[C@H]12" (system: CCRIS mutagenicity, Ames/micronucleus/aberration tests).
Result: inactive; negative

###

# Tested on: CCRIS mutagenicity, Ames/micronucleus/aberration tests
# ASSAY SUMMARY: CCRIS mutagenicity studies
# CONDITION LABEL: Test System: AMES SALMONELLA TYPHIMURIUM; Strain/Indicator: TA1535; Metabolic Activation: RAT, LIVER, S-9, PHENOBARBITAL; Method: STANDARD PLATE
Calls of active or inactive are those of the source. How the calls were made is not given here.
Would you mind answering with one of these outcomes? yes (1) for active, no (0) for inactive

Solved cases below.
{"COMPOUND": "Cn1c2ccccc2c(=O)c2c(O)cc3c(c21)CC(C(C)(O)CCl)O3 (centres undefined)", "CLASS": "no (0)"}
{"COMPOUND": "COc1cccc2c1cc([N+](=O)[O-])c1c(C(=O)O)cc3c(c12)OCO3", "CLASS": "yes (1)"}
{"COMPOUND": "[Cd]", "CLASS": "no (0)"}

Query: I'd appreciate the recorded outcome for "Nc1ccc2ccccc2c1" from this test.
Result: yes (1)

###

# Test system: CCRIS mutagenicity, Ames/micronucleus/aberration tests
# ASSAY SUMMARY: CCRIS mutagenicity studies
# CONDITION LABEL: Test System: AMES SALMONELLA TYPHIMURIUM; Strain/Indicator: TA104; Metabolic Activation: RAT, LIVER, S-9, PHENOBARBITAL AND 5,6-BENZOFLAVONE; Method: PREINCUBATION
Active and inactive are the calls of the source. No rule for the calls is given here.
Would you mind answering with one of these outcomes? class 1 for active, class 0 for inactive

Query: I'd appreciate the recorded outcome for "O=C(O)C(=O)O" from this test.
Result: class 0

Query: I'd appreciate the recorded outcome for "CC1=CC(=O)c2c(O)cccc2C1=O" from this test.
Result: class 1

Query: I'd appreciate the recorded outcome for "O=C(O)c1ccccc1C(=O)O" from this test.
Result: class 0

Query: I'd appreciate the recorded outcome for "N#CC1=C(C#N)C(=O)C(Cl)=C(Cl)C1=O" from this test.
Result: class 1

###

# Test system: CCRIS mutagenicity, Ames/micronucleus/aberration tests
# ASSAY SUMMARY: CCRIS mutagenicity studies
# CONDITION LABEL: End Point: IN VITRO CHROMOSOMAL ABERRATIONS; Test System: CHINESE HAMSTER LUNG CELLS (CHL); Metabolic Activation: NONE
Active and inactive are the calls of the source. The rule behind the calls is not given here.
Would you mind answering with one of these outcomes? YES = active, NO = inactive

Solved cases below.
{"SMILES REPRESENTATION": "Cc1c(N)cccc1N", "CLASS": "YES"}
{"SMILES REPRESENTATION": "Oc1cc(Cl)c(Cl)c(Cl)c1Cl", "CLASS": "NO"}
{"SMILES REPRESENTATION": "CN(C)c1ccc(N(C)C)cc1", "CLASS": "YES"}

Query: I'd appreciate the recorded outcome for "Oc1ccc(Cl)c(Cl)c1Cl" from this test.
Result: NO

Query: I'd appreciate the recorded outcome for "CN(C)c1ccc(N)cc1" from this test.
Result: YES

###

# System: CCRIS mutagenicity, Ames/micronucleus/aberration tests
# ASSAY SUMMARY: CCRIS mutagenicity studies
# CONDITION LABEL: Test System: AMES SALMONELLA TYPHIMURIUM; Strain/Indicator: TA98; Metabolic Activation: RAT, LIVER, S-9, AROCLOR 1254; Method: STANDARD PLATE
Activity calls are given as the source filed them. No rule for the calls is given here.
Would you mind answering with one of these outcomes? true (active), false (inactive)

Solved cases below.
{"MOLECULE": "Nc1ccc2ccccc2c1N=Nc1ccccc1", "TARGET OR TEST SYSTEM": "CCRIS mutagenicity, Ames/micronucleus/aberration tests", "CLASS": "false"}
{"MOLECULE": "CCC(=O)OCC(=O)[C@@]1(OC(=O)CC)[C@H](C)C[C@H]2[C@H]3[C@H]([C@@H](O)C[C@@]21C)[C@@]1(C)C=CC(=O)C=C1C[C@H]3Cl", "TARGET OR TEST SYSTEM": "CCRIS mutagenicity, Ames/micronucleus/aberration tests", "CLASS": "false"}
{"MOLECULE": "ClCCCl", "TARGET OR TEST SYSTEM": "CCRIS mutagenicity, Ames/micronucleus/aberration tests", "CLASS": "true"}
{"MOLECULE": "COC1C2C(=O)C34C(=O)c5c(O)cc(C)cc5C(=O)C35C3C(=O)C46C(=O)c4c(O)cc(C)cc4C(=O)C26C(C3OC)C15 (configuration not stated)", "TARGET OR TEST SYSTEM": "CCRIS mutagenicity, Ames/micronucleus/aberration tests", "CLASS": "false"}
{"MOLECULE": "O=[N+]([O-])c1cc2c3ccccc3ccc2c2ccccc12", "TARGET OR TEST SYSTEM": "CCRIS mutagenicity, Ames/micronucleus/aberration tests", "CLASS": "true"}
{"MOLECULE": "COC(=O)c1ccc(C(=O)OC)cc1", "TARGET OR TEST SYSTEM": "CCRIS mutagenicity, Ames/micronucleus/aberration tests", "CLASS": "false"}

Query: I'd appreciate the recorded outcome for "COc1cccc2c1cc([N+](=O)[O-])c1c(C(=O)O)cc3c(c12)OCO3" from this test.
Result: true

Query: I'd appreciate the recorded outcome for "O=[N+]([O-])c1ccc2ccc3c4c(cc5ccc1c2c53)CCC=C4" from this test.
Result: true

Query: I'd appreciate the recorded outcome for "Nc1cccc(N)c1" from this test.
Result: true

Query: I'd appreciate the recorded outcome for "Oc1cc2c3ccccc3ccc2c2ccccc12" from this test.
Result: false

Query: I'd appreciate the recorded outcome for "Cc1c2ccccc2c(C)c2ccccc12" from this test.
Result: true

Query: I'd appreciate the recorded outcome for "N#CC(Br)Br" from this test.
Result: false

Query: I'd appreciate the recorded outcome for "CC(=O)N(O)c1ccc(Cl)c(Cl)c1" from this test.
Result: false

Query: I'd appreciate the recorded outcome for "C=CC(=O)OCC(C)(C)C" from this test.
Result: false

Query: I'd appreciate the recorded outcome for "O=C(O)c1cc(Cl)cc2cccnc12" from this test.
Result: true

Query: I'd appreciate the recorded outcome for "Cc1cc(N)cc([N+](=O)[O-])c1N" from this test.
Result: true

Query: I'd appreciate the recorded outcome for Cc1cc2c(cc1C)C(C)c1ccccc1-2 (configuration not stated) from this test.
Result: true

Query: I'd appreciate the recorded outcome for "C=CC(=O)OCCCCCCOC(=O)C=C" from this test.
Result: false

Query: I'd appreciate the recorded outcome for "CC(=O)Nc1cc2c(cc1O)-c1ccccc1C2" from this test.
Result: false

Query: I'd appreciate the recorded outcome for "Cc1ccccc1N=O" from this test.
Result: false

Query: I'd appreciate the recorded outcome for "O=[N+]([O-])c1ccc2[nH]c3c([N+](=O)[O-])cccc3c2c1" from this test.
Result: true

Query: I'd appreciate the recorded outcome for "CN(C)c1ccc(-c2ccc(N(C)C)cc2)cc1" from this test.
Result: true

Query: I'd appreciate the recorded outcome for "CCCCC/C=C/C(=O)CCc1ccc(O)c(OC)c1" from this test.
Result: false

Query: I'd appreciate the recorded outcome for "C/C=C\c1cc(OC)c(OC)cc1OC" from this test.
Result: false
